test system: NCI-H226 lung; test: NCI tumour cell line growth inhibition, 48 h
Where a SMILES comes first, the peptide text is derived from it. Bridges are numbered along the chain shown (N, C = ends). [ ]: non-standard residue; d: D form. The star is where a group is joined. ξ: configuration not given here. ξDab(CH2SO3H) = NC(CCNCS(=O)(=O)O)C(=O)O; Heptanoyl(6-Me) = CC(C)CCCCC(=O)*; Dab = NCC[CH](N)C(=O)O
OBSERVABLE: GI50

[[record]]
compound = "C[C@@H](NC(=O)/C(C#N)=C/c1ccc([N+](=O)[O-])cc1)c1ccccc1"
result = "1.78 µM"

[[record]]
compound = "CCC(C)C1NC(=O)C(CCNCS(=O)(=O)O)NC(=O)C(NC(=O)C(CCNCS(=O)(=O)O)NC(=O)C(NC(=O)C(CCNCS(=O)(=O)O)NC(=O)CCCCC(C)C)C(C)O)CCNC(=O)C(C(C)O)NC(=O)C(CCNCS(=O)(=O)O)NC(=O)C(CCNCS(=O)(=O)O)NC(=O)C(C(C)CC)NC1=O (stereo unspecified) ({Heptanoyl(6-Me)}-[ξDab(CH2SO3H)]T[ξDab(CH2SO3H)][Dab][ξDab(CH2SO3H)]II[ξDab(CH2SO3H)][ξDab(CH2SO3H)]T; lactam 4-C; configuration not given here)"
result = "8.25 µM"

[[record]]
compound = "C=C1C(=O)O[C@H]2[C@H]1CC/C(C=Nc1c(N)cc(C(F)(F)F)cc1C(F)(F)F)=C\\CC[C@@]1(C)O[C@@H]21"
result = "1.43 µM"


Reported GI50 ( COc1ccc2c(O)c(/C=C3\N=Nc4ccccc43)oc2c1C[C@@H]1CCNC[C@H]1F ) = 13 µM

Sure, the documented GI50 for COc1cc2ncnc(Nc3cccc(Cl)c3F)c2cc1OC(=O)N1CCN(C)C[C@H]1C is > 45.9 µM

GI50 reading for COc1cc2c(cc1Cc1cccc(Cl)c1F)c(=O)c(C(=O)O)cn2[C@@H](CO)C(C)C : 5.68 µM

====

tested on: M14 melanoma; test: NCI tumour cell line growth inhibition, 48 h; in the data active = GI50 below about 0.43 µM; inactive = the rest
Outcomes you can answer with include only these: 1 (yes) (active), 0 (no) (inactive)

Use the examples below as a reference point.
[[record]]
compound = "Cn1cc(C2=C(c3c4n(c5ccccc35)CCC(CN)C4)C(=O)NC2=O)c2ccccc21 (centres undefined)"
target_under_test = "M14 melanoma"
assigned_category = "0 (no)"

[[record]]
compound = "COc1ccc2c(O)c(/C=C3\\N=Nc4ccccc43)oc2c1C[C@@H]1CCNC[C@H]1F"
target_under_test = "M14 melanoma"
assigned_category = "0 (no)"

[[record]]
compound = "Cc1nc(-c2nc(-c3ccc(OC(F)(F)F)cc3)no2)nn1Cc1cccc(N2CCC(S(C)(=O)=O)CC2)c1"
target_under_test = "M14 melanoma"
assigned_category = "0 (no)"

[[record]]
compound = "C=C1C(=O)O[C@H]2C[C@@H]1CC/C(C)=C/CC/C(C)=C/CC[C@@]2(C)O"
target_under_test = "M14 melanoma"
assigned_category = "0 (no)"

[[record]]
compound = "C[C@]12CC[C@@H]3c4cc(O)c(O)cc4CC[C@H]3[C@@H]1CC[C@@H]2O"
target_under_test = "M14 melanoma"
assigned_category = "0 (no)"

[[record]]
compound = "C[C@]12CC[C@@H]3c4cc(OC(F)F)c(OS(N)(=O)=O)cc4CC[C@H]3[C@@H]1CC[C@@H]2OS(N)(=O)=O"
target_under_test = "M14 melanoma"
assigned_category = "0 (no)"

[[record]]
compound = "C[C@@H](NC(=O)/C(C#N)=C/c1ccc([N+](=O)[O-])cc1)c1ccccc1"
target_under_test = "M14 melanoma"
assigned_category = "0 (no)"

[[record]]
compound = "COc1cc2ncnc(Nc3cccc(Cl)c3F)c2cc1OC(=O)N1CCN(C)C[C@H]1C"
target_under_test = "M14 melanoma"
assigned_category = "0 (no)"


Query :: Hey, what did the test say about CCN1C(=O)N(CC)C2C1NN=c1s/c(=C\c3ccco3)c(=O)n12 (centres undefined) ?
Result :: 1 (yes)

====

system: DMS 114 small cell lung; test: NCI tumour cell line growth inhibition, 48 h
OBSERVABLE: TGI (µM)
Write the value in µM as a bare number.

Some entries whose results are on file:
[[record]]
compound = "COc1cc2c(cc1OC)CC(=O)Nc1cc(OC)c(OC)cc1CC2"
target_under_test = "DMS 114 small cell lung"
result = 91.9

[[record]]
compound = "O=C(c1ccccc1)C(c1ccccc1)C1(O)C(=O)Nc2ccc([N+](=O)[O-])cc21 (stereo not drawn)"
target_under_test = "DMS 114 small cell lung"
result = 79.3

[[record]]
compound = "O=C1C=CC(=O)c2c1ccc1c3ccccc3n(-c3ccccc3)c21"
target_under_test = "DMS 114 small cell lung"
result = 40.4

[[record]]
compound = "CCC(O)C1Cc2c(C)cc3c(c2O1)C(=O)c1ccccc1C3=O (stereo not drawn)"
target_under_test = "DMS 114 small cell lung"
result = 97.7


Item: CC1=CCCC2C1(C)CCC(C)C2(C)Cc1cc(O)ccc1O (stereo not drawn) | TGI: 13.3

Recorded TGI (compound COc1cc2c(c(OC)c1OC)-c1ccc(OC)c(=O)cc1[C@@H](NC(C)=O)CC2 ): 0.0724

====

tested on: SN12C renal; experiment: NCI tumour cell line growth inhibition, 48 h; in the data active = GI50 below about 0.43 µM; inactive = the rest
Bench note: report the call from Yes (active), No (inactive)

The examples below pair each entry with its known result.
[[record]]
molecule = "COc1ccc2cc(C(=O)/C=C/c3ccc(N(C)C)cc3)ccc2c1"
target_under_test = "SN12C renal"
assigned_category = "No"

[[record]]
molecule = "N/C(=N/N=C/c1ccccc1)N/N=C\\c1ccccc1"
target_under_test = "SN12C renal"
assigned_category = "No"


Query :: GET /call?item= N#C[Se]CCN1C(=O)C2C(C1=O)[C@H]1C=C[C@@H]2S1 (stereo partly specified) returns the recorded outcome of this test.
Result :: No

Query :: Recorded test call requested for Clc1ccc(Nc2ccnc(N3CCN(c4ccnc5cc(Cl)ccc45)CC3)n2)cc1
Result :: No

Query :: Please let me know the test result on file for O=[N+]([O-])c1ccc(C2CC(c3ccccc3)=Nc3ccccc3S2)cc1 (stereo unspecified) .
Result :: No

Query :: What did this assay record as the result for O=C(Nc1ccc(-n2cc(-c3ccncc3)c(-c3ccc(O)c(Cl)c3)n2)cc1)Nc1ccc(Cl)c(C(F)(F)F)c1 ?
Result :: No

Query :: Just curious, what result did C=C1C(=O)O[C@H]2C[C@@H]1CC/C(C)=C/CC/C(C)=C/CC[C@@]2(C)O get here?
Result :: No

Query :: For this molecule, state the assay outcome: Cn1cc(C2=C(c3c4n(c5ccccc35)CCC(CN)C4)C(=O)NC2=O)c2ccccc21 (stereo unspecified)
Result :: No

Query :: Please indicate how the test categorized C#CCN(Cc1nc2cc(C(F)(F)F)ccc2nc1-c1ccccc1)c1ccc(C)cc1 .
Result :: No

Query :: // return assay outcome for CCCCCCCCC/C(=N\NC(=O)c1ccncc1)c1ccc(O)c(O)c1O
Result :: Yes

Query :: Per the assay record, what outcome was assigned to COc1cc(C(=O)N2CCN(c3ccccc3)CC2)c2ccccc2n1 ?
Result :: No

====

# reported TGI; entries follow
tested on: SF-268 CNS; assay: NCI tumour cell line growth inhibition, 48 h
Quick note: give the figure in µM, leave out the unit.

[[record]]
compound_smiles = "C=C1C(=O)O[C@H]2[C@H]1CC/C(C=Nc1c(N)cc(C(F)(F)F)cc1C(F)(F)F)=C\\CC[C@@]1(C)O[C@@H]21"
observable = "TGI"
unit_name = "µM"
result = 3.82


Let's switch to this compound now.
Record O=C(/C(=C/c1ccc([N+](=O)[O-])cc1)SCc1ccc(Cl)cc1)c1ccc(F)cc1 , field TGI: 21.6

====

tested on: CAKI-1 renal; test: NCI tumour cell line growth inhibition, 48 h; in the data active = GI50 below about 0.43 µM; inactive = the rest
Answer with one of the outcomes given here: active, inactive

Below, 5 compounds whose answers are already recorded.
[[record]]
compound = "Cn1cc(C2=C(c3c4n(c5ccccc35)CCC(CN)C4)C(=O)NC2=O)c2ccccc21 (stereo unspecified)"
target_under_test = "CAKI-1 renal"
assigned_category = "inactive"

[[record]]
compound = "COc1ccc2c(c1)oc(=O)c1cc(OC)ccc12"
target_under_test = "CAKI-1 renal"
assigned_category = "inactive"

[[record]]
compound = "CCCCCCCCCCCCSC1=C(Cl)C(=O)C(OC)=C(OC)C1=O"
target_under_test = "CAKI-1 renal"
assigned_category = "inactive"

[[record]]
compound = "C[C@@H](NC(=O)/C(C#N)=C/c1ccc([N+](=O)[O-])cc1)c1ccccc1"
target_under_test = "CAKI-1 renal"
assigned_category = "inactive"

[[record]]
compound = "COc1ccc2c(O)c(/C=C3\\N=Nc4ccccc43)oc2c1C[C@@H]1CCNC[C@H]1F"
target_under_test = "CAKI-1 renal"
assigned_category = "inactive"


Then there is this compound:
Query :: For S=C(NCCNC(=S)[S][Sn]([c]1ccccc1)([c]1ccccc1)[c]1ccccc1)[S][Sn]([c]1ccccc1)([c]1ccccc1)[c]1ccccc1 , what call appears in the results of this test?
Result :: active
